test system: Escherichia coli TOP10; assay: shrunken log2 fold change of peptide-encoding DNA abundance (4.5 h post-induction vs induction); higher = less antimicrobial activity (less host growth inhibition); details: time post-induction: 4.5 h; library: site-saturation at positions 5, 18, 19, 20;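 further: peptides expressed intracellularly from a pBAD plasmid library in pooled LB shake-flask culture, induced with 0.3% L-arabinose, DNA abundance read by NGS, three biological replicates, DESeq2 with apeglm shrinkage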
RESULT TYPE: shrunken log2 fold change
Give bare numbers.

Batch lookup, shrunken log2 fold change per entry.
1. RRIRNRPPRLPRPRPRPPGLPRP
2. RRIRYRPPRLPRPRPRPGNIPRP
3. RRIRLRPPRLPRPRPRPIKLPRP

Result:
[0.46, -0.153, -0.515]

Quick request: shrunken log2 fold change for each listed item, please.
1. RRIRHRPPRLPRPRPRPSQPPRP
2. RRIRHRPPRLPRPRPRPCPKPRP
3. RRIRRRPPRLPRPRPRPPWPPRP
4. RRIRVRPPRLPRPRPRPACAPRP

Result:
-0.184
0.03
0.667
0.322

// batch mode: one shrunken log2 fold change value per listed entry
1. RRIRPRPPRLPRPRPRPGCTPRP
2. RRIRWRPPRLPRPRPRPTGQPRP
3. RRIRRRPPRLPRPRPRPLMIPRP
4. RRIRIRPPRLPRPRPRPHGTPRP
5. RRIRGRPPRLPRPRPRPFELPRP
6. RRIRQRPPRLPRPRPRPPIVPRP
7. RRIRCRPPRLPRPRPRPTHSPRP
8. RRIRYRPPRLPRPRPRPVCFPRP

Result:
0.104
-0.0283
-0.258
-0.236
0.0951
-0.015
0.288
-0.674

Please go through the list and note shrunken log2 fold change for each sequence.
1. RRIRMRPPRLPRPRPRPYIQPRP
2. RRIRDRPPRLPRPRPRPIYFPRP
3. RRIRTRPPRLPRPRPRPECEPRP
4. RRIRYRPPRLPRPRPRPTRQPRP

Result:
1. -1.05
2. -0.839
3. 0.154
4. -0.00287
